- run_description: Selectivity index, ratio of CC50 for Cytotoxicity against african green monkey Vero cells to IC50 for Antiviral activity against HSV1 infected in African green monkey Vero cells
- Assay type: toxicity, cell-based
- condition_details: read-out: Selectivity Index
Grouping rule (selectivity ratio): 0: < 7; 1: ≥ 7 and < 20; 2: ≥ 20

Q: Bin this entry: CC(C)CC(=O)c1c(O)c(Br)c2c(c1O)C(CC(C)C)C1=C(O2)C(C)(C)C(=O)C(C)(C)C1=O (centres undefined)
Ans: 1

====

- run_description: Cytotoxicity against African green monkey Vero cells assessed as cell viability measured after 24 hrs incubation by MTT assay
- Type: toxicity, cell-based
- condition_details: chlorocebus sabaeus
Criterion: CC50 at 24 h strictly under 8 µM. Met: 1 (yes). Not met: 0 (no).

Reference set (3 entries):
1. CC(C)CC(=O)c1c(O)cc2c(c1O)[C@@H](CC(C)C)C1=C(O2)C(C)(C)C(=O)C(C)(C)C1=O | 1 (yes)
2. CCCCC1C2=C(Oc3cc(O)c(C(=O)CC(C)C)c(O)c31)C(C)(C)C(=O)C(C)(C)C2=O (stereo not drawn) | 0 (no)
3. CC(C)CC1C2=C(Oc3c(C(=O)C(C)C)c(O)cc(O)c31)C(C)(C)C(=O)C(C)(C)C2=O (racemic) | 0 (no)

Q: A record lists CC(C)CC1C2=C(Oc3cc(O)cc(O)c31)C(C)(C)C(=O)C(C)(C)C2=O (stereo not drawn) . Is its CC50 at 24 h below 8 µM?
Ans: 0 (no)

Q: Lab note: confirm whether the reported CC50 at 24 h for this compound is below 8 µM, equality not counting. compound: CC(=O)Oc1cc2c(c(OC(C)=O)c1C(=O)CC(C)C)C(CC(C)C)C1=C(O2)C(C)(C)C(=O)C(C)(C)C1=O (stereo not drawn)
Ans: 1 (yes)

Q: Is the reported CC50 at 24 h for CC(C)CC(=O)c1c(O)cc2c(c1O)C(CC(C)C)C1=C(CCC(C)(C)C1=O)O2 (stereo not drawn) strictly below 8 µM?
Ans: 0 (no)

Q: A record lists CCC(=O)c1c(O)cc2c(c1O)C(CC(C)C)C1=C(O2)C(C)(C)C(=O)C(C)(C)C1=O (stereo not drawn) . Is its CC50 at 24 h below 8 µM?
Ans: 1 (yes)

====

Each entry below carries its reported CC50 at 24 h.
- run_description: Cytotoxicity against African green monkey Vero cells assessed as cell viability measured after 24 hrs incubation by MTT assay
- Type: toxicity, cell-based
- condition_details: chlorocebus sabaeus
Only the number, expressed in µM, is required.

Here is how some compounds turned out for CC50 at 24 h.
1) CCC1C2=C(Oc3c(C(=O)CC(C)C)c(O)cc(O)c31)C(C)(C)C(=O)C(C)(C)C2=O (racemic) | 10
2) CCCC(=O)c1c(O)cc2c(c1O)C(CC(C)C)C1=C(O2)C(C)(C)C(=O)C(C)(C)C1=O (configuration not stated) | 10
3) CC(C)CC1C2=C(Oc3cc(O)c(C(=O)c4ccccc4)c(O)c31)C(C)(C)C(=O)C(C)(C)C2=O (configuration not stated) | 10
4) CC(C)CC(=O)c1c(O)cc2c(c1O)C(C)C1=C(O2)C(C)(C)C(=O)C(C)(C)C1=O (racemic) | 10
5) CC(C)CC1C2=C(Oc3cc(O)c(C(=O)C4CCC4)c(O)c31)C(C)(C)C(=O)C(C)(C)C2=O (configuration not stated) | 13

Value of measured CC50 at 24 h for the entry CC(C)CC(=O)c1c(O)cc2c(c1O)C(CC(C)C)C1=C(CCCC1=O)O2 (configuration not stated) : 16

get_value(item= CC(C)CC(=O)c1c(O)cc2c(c1O)C(Cc1ccccc1)C1=C(O2)C(C)(C)C(=O)C(C)(C)C1=O (configuration not stated) , readout=CC50 at 24 h) returns 13

Entry CC(C)CC1C2=C(Oc3cc(O)c(C(=O)C4CCCCC4)c(O)c31)C(C)(C)C(=O)C(C)(C)C2=O (configuration not stated) , CC50 at 24 h reported as 7

====

- run_description: Selectivity index, ratio of CC50 for Cytotoxicity against african green monkey Vero cells to IC50 for Antiviral activity against HSV1 infected in African green monkey Vero cells
- Assay type: toxicity, cell-based
- condition_details: read-out: Selectivity Index
List of selectivity ratio values.
When you answer, write just the number.

Here are 3 molecules together with their reported answers.
1. CC1(C)C(=O)C2=C(Oc3cc(O)cc(O)c3C2c2ccccc2)C(C)(C)C1=O (stereo not drawn) | 2.25
2. CC(C)CC(=O)c1c(O)cc(O)c2c1OC1=C(C(=O)C(C)(C)C(=O)C1(C)C)C2CC(C)C (racemic) | 4.44
3. CCC1C2=C(Oc3cc(O)c(C(=O)CC(C)C)c(O)c31)C(C)(C)C(=O)C(C)(C)C2=O (stereo not drawn) | 7.5

Kindly note the recorded selectivity ratio for CCC(=O)c1c(O)cc2c(c1O)C(CC(C)C)C1=C(O2)C(C)(C)C(=O)C(C)(C)C1=O (stereo not drawn) , which is 13.9

Note to self: selectivity ratio recorded for CC(C)CC(=O)c1c(O)cc2c(c1O)C(CC(C)C)C1=C(O2)C(C)(C)C(=O)C(C)(C)C1=O (racemic) was 17.9

get_value(item= CC(C)CC1C2=C(Oc3cc(O)c(C(=O)Cc4ccccc4)c(O)c31)C(C)(C)C(=O)C(C)(C)C2=O (stereo not drawn) , readout=selectivity ratio) returns 21.2

According to the records, this molecule CCCCC(=O)c1c(O)cc2c(c1O)C(CC(C)C)C1=C(O2)C(C)(C)C(=O)C(C)(C)C1=O (stereo not drawn) displays selectivity ratio of 20

====

- run_description: Cytotoxicity against African green monkey Vero cells assessed as cell viability measured after 24 hrs incubation by MTT assay
- Type: toxicity, cell-based
- condition_details: chlorocebus sabaeus
Lab note: anything with CC50 at 24 h below 10 µM is marked met; values at 10 µM or higher are marked not met.

1. CC(C)CC(=O)c1c(O)cc2c(c1O)[C@@H](CC(C)C)C1=C(C[C@H](C)CC1=O)O2 | not met
2. Nc1nc2c(ncn2COCCO)c(=O)[nH]1 [ACYCLOVIR] | not met
3. CC(C)CC(O)c1c(O)cc2c(c1O)C(CC(C)C)C1=C(O2)C(C)(C)C(=O)C(C)(C)C1=O (stereo not given) | not met

Then this molecule:
Q: Here's an entry: COc1cc2c(c(OC)c1C(=O)CC(C)C)C(CC(C)C)C1=C(O2)C(C)(C)C(=O)C(C)(C)C1=O (stereo not given) . Is its CC50 at 24 h below 10 µM?
Ans: not met

====

Entries annotated with measured selectivity ratio
- run_description: Selectivity index, ratio of CC50 for Cytotoxicity against african green monkey Vero cells to IC50 for Antiviral activity against HSV1 infected in African green monkey Vero cells
- Type: toxicity, cell-based
- condition_details: read-out: Selectivity Index
Give the figure by itself; no unit, no explanation.

1) CC(C)CC(=O)c1c(O)cc2c(c1O)C(C1CCC1)C1=C(O2)C(C)(C)C(=O)C(C)(C)C1=O (configuration not stated) | 10

Entry CC(C)CC(=O)c1c(O)cc2c(c1O)[C@H](CC(C)C)C1=C(C[C@H](C)CC1=O)O2 , selectivity ratio reported as 8.89

# selectivity ratio (molecule: CC(C)CC(=O)c1c(OS(=O)(=O)C(F)(F)F)cc2c(c1O)C(CC(C)C)C1=C(O2)C(C)(C)C(=O)C(C)(C)C1=O (configuration not stated) ) is 16.7

selectivity ratio reading for CC(C)CC1C2=C(Oc3cc(O)c(C(=O)CCc4ccccc4)c(O)c31)C(C)(C)C(=O)C(C)(C)C2=O (configuration not stated) : 15.6

# selectivity ratio (molecule: CC(C)CC(=O)c1c(O)cc2c(c1O)C(C(C)C)C1=C(O2)C(C)(C)C(=O)C(C)(C)C1=O (configuration not stated) ) is 15.9

CC(C)CC1C2=C(Oc3cc(O)c(C(=O)C(C)C)c(O)c31)C(C)(C)C(=O)C(C)(C)C2=O (configuration not stated) has a reported selectivity ratio of 17.8

Short answer for CC(C)CC1C2=C(Oc3c(C(=O)C(C)C)c(O)cc(O)c31)C(C)(C)C(=O)C(C)(C)C2=O (racemic) : selectivity ratio was 3.65

selectivity ratio reading for CC(=O)Oc1cc2c(c(OC(C)=O)c1C(=O)CC(C)C)C(CC(C)C)C1=C(O2)C(C)(C)C(=O)C(C)(C)C1=O (configuration not stated) : 14

====

- run_description: Selectivity index, ratio of CC50 for Cytotoxicity against african green monkey Vero cells to IC50 for Antiviral activity against HSV1 infected in African green monkey Vero cells
- Assay type: toxicity, cell-based
- condition_details: read-out: Selectivity Index
observable: selectivity ratio
Number, no unit, nothing else.

Solved cases (3 shown):
1) CC(C)CC(=O)c1c(O)cc2c(c1O)[C@H](CC(C)C)C1=C(O2)C(C)(C)C(=O)C(C)(C)C1=O | 18.7
2) CC(C)CC(=O)c1c(O)c(Cl)c2c(c1O)C(CC(C)C)C1=C(O2)C(C)(C)C(=O)C(C)(C)C1=O (stereo not drawn) | 35
3) CCCCC1C2=C(Oc3cc(O)c(C(=O)CC(C)C)c(O)c31)C(C)(C)C(=O)C(C)(C)C2=O (stereo not drawn) | 10

Sure, the documented selectivity ratio for CC(C)CC(=O)c1c(O)cc2c(c1O)[C@@H](CC(C)C)C1=C(C[C@H](C)CC1=O)O2 is 7

The measured selectivity ratio associated with CC(C)CC1C2=C(Oc3cc(O)c(C(=O)c4ccccc4)c(O)c31)C(C)(C)C(=O)C(C)(C)C2=O (stereo not drawn) reads 4

Entry under test: CC(C)CC(=O)c1c(O)cc2c(c1O)C(c1ccccc1)C1=C(O2)C(C)(C)C(=O)C(C)(C)C1=O (stereo not drawn) . Its selectivity ratio was 24.4

Note to self: selectivity ratio recorded for CC(C)CC1C2=C(Oc3cc(O)c(C=O)c(O)c31)C(C)(C)C(=O)C(C)(C)C2=O (stereo not drawn) was 3.56

Record CC(C)CC(=O)c1c(O)cc2c(c1O)C(CC(C)C)C1=C(CCC(C)(C)C1=O)O2 (stereo not drawn) , field selectivity ratio: 7.27

get_value(item= CC(C)CC(=O)c1c(O)cc2c(c1O)C(C1CCCC1)C1=C(O2)C(C)(C)C(=O)C(C)(C)C1=O (stereo not drawn) , readout=selectivity ratio) returns 11.4

compound CC(C)CC1C2=C(Oc3cc(O)c(C(=O)C4CCCCC4)c(O)c31)C(C)(C)C(=O)C(C)(C)C2=O (stereo not drawn) , selectivity ratio observed: 35

Measured selectivity ratio, CC(C)CC(=O)c1c(O)cc2c(c1O)[C@H](CC(C)C)C1=C(O2)C(C)(C)[C@@H](O)C(C)(C)C1=O : 3
